Numbers sourced from paper PMC8149352.

experiment: Part B: effect of strong CYP3A inhibitor itraconazole on single-dose pamiparib plasma PK (phase 1 DDI study); type: in vivo, human (patients with solid tumors); conditions: human, single oral pamiparib 20 mg alone, day 1, reference, N = 12, plasma, read-out: pamiparib Cmax, GLSM (% CV)
measure: Cmax (ng/mL)
Expressed in ng/mL, but write only the number.

Ask: Retrieve Cmax measured for C[C@]12CCCN1CC1=NNC(=O)c3cc(F)cc4[nH]c2c1c34 [Pamiparib] and print it.
Result: 665

* * *

assay: Part A: effect of strong CYP3A inducer rifampin on single-dose pamiparib plasma PK (phase 1 DDI study); type: in vivo, human (patients with advanced solid tumors); settings: human; Part A; single oral pamiparib 60 mg alone, day 1; reference; N = 11; plasma; read-out: pamiparib Cmax, GLSM (% CV)
measure: Cmax (ng/mL)
Expressed in ng/mL, but write only the number.

Ask: Retrieve Cmax measured for C[C@]12CCCN1CC1=NNC(=O)c3cc(F)cc4[nH]c2c1c34 [Pamiparib] and print it.
Result: 1990

* * *

assay: Part A: effect of strong CYP3A inducer rifampin on single-dose pamiparib plasma PK (phase 1 DDI study); assay type: in vivo, human (patients with advanced solid tumors); settings: human, plasma, oral; Part A; pamiparib 60 mg alone, day 1; reference; N = 9; read-out: pamiparib AUC0-inf, GLSM (% CV)
measure: AUC(0-inf) (ng·h/mL)
Expressed in ng·h/mL, but write only the number.

Ask: Retrieve AUC(0-inf) measured for `C[C@]12CCCN1CC1=NNC(=O)c3cc(F)cc4[nH]c2c1c34` and print it.
Result: 29500

* * *

assay: Part B: effect of strong CYP3A inhibitor itraconazole on single-dose pamiparib plasma PK (phase 1 DDI study); format: in vivo, human (patients with solid tumors); details: human, plasma, oral, pamiparib 20 mg day 7 with itraconazole 200 mg QD, test, N = 12, read-out: pamiparib AUC0-inf, GLSM (% CV)
measure: AUC(0-inf) (ng·h/mL)
Expressed in ng·h/mL, but write only the number.

Ask: Retrieve AUC(0-inf) measured for `C[C@]12CCCN1CC1=NNC(=O)c3cc(F)cc4[nH]c2c1c34` and print it.
Result: 8380

* * *

test: Part A: effect of strong CYP3A inducer rifampin on single-dose pamiparib plasma PK (phase 1 DDI study); type: in vivo, human (patients with advanced solid tumors); conditions: human, plasma, oral, Part A; pamiparib 60 mg in combination with rifampin; read-out: pamiparib mean t1/2 (converted)
measure: half-life (h)
Expressed in h, but write only the number.

Ask: Retrieve half-life measured for `C[C@]12CCCN1CC1=NNC(=O)c3cc(F)cc4[nH]c2c1c34` and print it.
Result: 7.94

* * *

assay: Part A: effect of strong CYP3A inducer rifampin on single-dose pamiparib plasma PK (phase 1 DDI study); assay type: in vivo, human (patients with advanced solid tumors); conditions: human, plasma, oral; Part A; pamiparib 60 mg alone, day 1; reference; N = 11; read-out: pamiparib AUC0-tlast, GLSM (% CV)
measure: AUC(0-t)
The answer consists of two parts: a number and, after it, its unit.

Ask: Retrieve AUC(0-t) measured for C[C@]12CCCN1CC1=NNC(=O)c3cc(F)cc4[nH]c2c1c34 [Pamiparib] and print it.
Result: 28800 ng·h/mL

* * *

assay: Part B: effect of strong CYP3A inhibitor itraconazole on single-dose pamiparib plasma PK (phase 1 DDI study); type: in vivo, human (patients with solid tumors); conditions: human, plasma, oral, pamiparib 20 mg in combination with itraconazole, read-out: pamiparib mean t1/2 (converted)
measure: half-life (min)
Expressed in min, but write only the number.

Ask: Retrieve half-life measured for `C[C@]12CCCN1CC1=NNC(=O)c3cc(F)cc4[nH]c2c1c34` and print it.
Result: 720
